# assayedTarget: Transient receptor potential cation channel subfamily V member 1 (Rattus norvegicus, UniProt O35433)
# Sequence (O35433 whole entry): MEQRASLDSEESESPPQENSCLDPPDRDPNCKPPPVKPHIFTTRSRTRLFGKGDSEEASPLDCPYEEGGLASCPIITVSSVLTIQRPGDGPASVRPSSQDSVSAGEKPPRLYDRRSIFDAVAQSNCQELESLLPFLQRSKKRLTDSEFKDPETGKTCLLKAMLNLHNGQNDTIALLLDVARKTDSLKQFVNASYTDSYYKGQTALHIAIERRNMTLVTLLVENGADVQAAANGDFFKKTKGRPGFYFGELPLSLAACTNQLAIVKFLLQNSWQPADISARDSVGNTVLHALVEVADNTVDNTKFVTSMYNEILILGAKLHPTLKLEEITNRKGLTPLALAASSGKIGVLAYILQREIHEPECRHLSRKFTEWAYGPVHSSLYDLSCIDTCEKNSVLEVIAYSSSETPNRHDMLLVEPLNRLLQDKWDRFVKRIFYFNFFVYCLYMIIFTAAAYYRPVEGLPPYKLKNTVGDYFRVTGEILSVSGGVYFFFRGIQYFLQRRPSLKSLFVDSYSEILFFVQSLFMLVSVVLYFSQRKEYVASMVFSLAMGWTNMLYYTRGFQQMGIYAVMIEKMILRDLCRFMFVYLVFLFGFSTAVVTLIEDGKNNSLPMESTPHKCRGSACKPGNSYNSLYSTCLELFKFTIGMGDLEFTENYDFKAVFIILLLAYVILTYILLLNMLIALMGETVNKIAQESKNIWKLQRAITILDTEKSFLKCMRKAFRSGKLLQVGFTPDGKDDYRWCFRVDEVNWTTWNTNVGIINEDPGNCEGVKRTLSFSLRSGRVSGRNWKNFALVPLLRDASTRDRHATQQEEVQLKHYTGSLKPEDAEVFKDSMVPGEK
# experimentalDetails: In vitro antagonistic activity on VR1 receptor in [Ca2+] influx assay in rat dorsal root ganglion
# Format: functional, tissue-based
pIC50: −log10 of the molar value.
measure: pIC50

Recorded pIC50, per entry:
1) CC(C)(C)c1ccc(NC(=O)N2CCN(c3ccccn3)CC2)cc1: 6.82
2) CC(C)(C)c1ccc(NC(=O)c2ccc(-c3ncccn3)cc2)cc1: 7.22
3) Cc1ccc(NC(=O)c2ccc(-c3ccccn3)cc2)cc1C: 5.70
4) CC(C)c1ccc(NC(=O)c2ccc(-c3ccccn3)cc2)cc1: 7.42
5) Cc1ccc(NC(=O)c2ccc(-c3ccccn3)cc2)cc1: 5.64
6) O=C(Nc1ccc(C(F)(F)F)cc1)c1ccc(-c2ccccn2)cc1: 5.10
7) CC(C)(C)c1ccc(NC(=O)c2ccc(-c3ncccc3[N+](=O)[O-])cc2)cc1: 7.22

(P) CC(C)(C)c1ccc(NC(=O)c2ccc(-c3ccncc3)cc2)cc1
(Q) Cc1cccnc1-c1ccc(C(=O)Nc2ccc(C(C)(C)C)cc2)cc1
(R) CC(C)(C)c1ccc(NC(=O)c2ccc(-c3ncccc3Cl)cc2)cc1
Prompt line: Let's sort these by pIC50, smallest first. Go ahead? Reply: labels, ordered per the request.
Response line: P, R, Q
